PROTOCOL DETAILS: reversal of MRP1-mediated doxorubicin resistance, pilot screen, H69AR cells, doxorubicin co-treatment (AID 601)
ASSAY CONDITIONS: H69AR cells + 2 uM doxorubicin, CellTiter-Glo, 72 h; measured here: viability with 2 uM doxorubicin; at 10 µM; stronger effect = lower value
ASSAY METRIC: viability (%)
# unit: % | format: bare number

Solved entries (count: 8):
CCOc1ccc(-n2cc(C(=O)N3CCN(C)CC3)c3cc(OC)c(OC)cc3c2=O)cc1
110
COc1ccc(N2CCN(c3ccc(NC(=O)C4CCCCC4)cc3C#N)CC2)cc1
90.4
c1c2c(cc3sc(N4CCCCC4)nc13)OCCO2
73.3
Cc1cc2c(s1)c1cnn(CC(=O)NCCc3ccccc3)c(=O)c1n2C
82
COC(=O)c1ccc(NC(=O)C2CC(=O)N(c3cc(C)ccc3C)C2)cc1 (stereo not drawn)
86.2
CC1CN(C(=O)c2cc3cc(Cl)cc(Cl)c3oc2=O)CC(C)O1 (stereo not drawn)
87.7
O=C(O)CCCc1nc(-c2ccccc2)no1
97.8
Cc1c(C(=O)OCC(C)C)[nH]c2c1C(=O)CC(c1ccco1)C2 (stereo not drawn)
46.6

### Prompt Entry under review: O=C(CSc1ccc(Cl)cc1)OCc1nnc(-c2ccccc2)o1 . Reported viability?
### Response 79.5

### Prompt // returns reported viability for input CC1CCCCC1NC(=O)C1CCN(C(=O)NC2CCCCC2)CC1 (stereo not drawn)
### Response 95.3

### Prompt Fill in: viability of Cc1cc(C)n(CCc2nc(-c3cccs3)cs2)n1 is ___
### Response 79.2

### Prompt State the recorded viability for this entry: COc1ccccc1NC(=O)c1ccc(COc2ccccc2OC)o1
### Response 91.3

### Prompt Endpoint output: viability of COC(=O)c1cc(OC)c(OCc2cc(C(=O)OC)oc2C)c(OC)c1 . Value?
### Response 89.7

### Prompt # viability lookup, item COc1ccc(CCNC(=O)c2cnc3scc(C)n3c2=O)cc1OC
### Response 92.9

====

PROTOCOL DETAILS: reversal of MRP1-mediated doxorubicin resistance, pilot screen, H69AR cells, doxorubicin co-treatment (AID 601)
ASSAY CONDITIONS: H69AR cells, CellTiter-Glo, 72 h; compound alone cytotoxicity; at 10 µM
ASSAY METRIC: viability
Remember to quote the unit after the number.

O=C(COC(=O)CCC(=O)c1cccs1)NCc1ccco1
79.8%
Cc1cnc(C(=O)OCC(=O)Nc2ccc(Oc3ccccc3)cc2)cn1
91.9%
CN(C)/C=N/c1ncnc2c1cnn2-c1ccc(C(F)(F)F)cn1
81.8%
CCC(=O)Nc1c2c(nn1-c1ccccc1C)CSC2
102%
COCCn1nnnc1CN(Cc1cccnc1)Cc1cc2cc(OC)ccc2[nH]c1=O
88.3%
Cc1nc(-c2cnn(-c3ccccc3)c2)c2cc(C)oc2n1
90.7%
Cc1ccc(C)c(N(CC(=O)NCc2ccco2)C(=O)CCC(=O)Nc2ccccn2)c1
68.6%
CCOC(=O)c1c(C)[nH]c(C(=O)COC(=O)C2CC2C)c1C (stereo not given)
102%

### Prompt For the molecule Nc1c(S(=O)(=O)c2cccs2)c2nc3ccccc3nc2n1CC1CCCO1 (stereo not given) , what viability is on record?
### Response 85.9%

### Prompt Look up viability: COCCN(C(=O)Cn1nnc2ccccc21)C(C(=O)NC1CCCC1)c1cc(OC)ccc1OC (stereo not given)
### Response 93.9%
